Below, each of the molecules is paired with its reported pIC50 value.
target: UniProt P14902
Sequence (P14902 whole entry): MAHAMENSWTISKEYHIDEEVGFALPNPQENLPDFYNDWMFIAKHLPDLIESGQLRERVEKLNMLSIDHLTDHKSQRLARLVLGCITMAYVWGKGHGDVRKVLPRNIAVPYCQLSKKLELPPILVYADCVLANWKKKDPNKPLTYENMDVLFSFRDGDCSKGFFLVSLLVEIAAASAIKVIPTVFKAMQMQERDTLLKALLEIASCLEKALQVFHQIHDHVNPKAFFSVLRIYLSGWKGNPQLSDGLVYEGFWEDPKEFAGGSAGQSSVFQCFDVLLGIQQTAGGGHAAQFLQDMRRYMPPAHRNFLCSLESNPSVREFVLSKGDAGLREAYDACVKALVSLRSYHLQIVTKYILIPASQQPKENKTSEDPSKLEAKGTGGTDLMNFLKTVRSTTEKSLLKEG
test_name: HeLa cell-based indoleamine 2,3-dioxygenase (IDO) assay (kynurenine production, IFNγ-stimulated)
condition_details: HeLa cells, IFNγ 25 ng/mL, 48 hour incubation; read-out: IDO Hela IC50
Field pIC50 (float): negative decimal logarithm of the concentration in molar.

CCC(NC(=O)c1ccc(OC)nc1)C1CCC(c2ccnc3ncccc23)CC1 (mixture of isomers) ... 7.52

The molecule listed as CC[C@@H](NC(=O)c1ccc(OC)nc1)[C@H]1CC[C@@H](c2ccnc3c(F)cccc32)CC1 (single isomer, unassigned) [Example 59a] shows pIC50 equal to 7.00

The molecule listed as `C[C@@H](NC(=O)c1cccnc1)[C@H]1CC[C@@H](c2ccnc3ccc(F)cc32)CC1` shows pIC50 equal to 8.00

The molecule listed as CCC(NC(=O)c1ccc(OC)nc1)C1CCC(c2cccc(=O)n2C)CC1 (single isomer, unassigned) [Example 32c] shows pIC50 equal to 6.13

The molecule listed as `C[C@@H](NC(=O)c1ccncc1)[C@H]1CC[C@@H](c2ccnc3ccc(F)cc32)CC1` shows pIC50 equal to 8.00

The molecule listed as CCC(NC(=O)c1ccc(OC)nc1)C1CCC(c2ccnc(F)c2C)CC1 (single isomer, unassigned) [Example 27a] shows pIC50 equal to 6.31

The molecule listed as CCC(NC(=O)c1cnc(OC)nc1)C1CCC(c2ccnc3c(F)cc(F)cc23)CC1 (single isomer, unassigned) [Example 58b] shows pIC50 equal to 6.30

The molecule listed as CCC(NC(=O)c1ccc(OC)nc1)C1CCC(c2ccnc3cc(C(F)(F)F)ccc23)CC1 (single isomer, unassigned) [Example 19b] shows pIC50 equal to 8.00

The molecule listed as CC[C@@H](NC(=O)c1cnc(OC)nc1)[C@H]1CC[C@@H](c2ccnc3c(F)cccc32)CC1 (single isomer, unassigned) [Example 60c] shows pIC50 equal to 8.00
